Molecular target: KRAS G12C (Homo sapiens, UniProt P01116, G12C)
Sequence (P01116 1-188 isoform P01116-2 G12C): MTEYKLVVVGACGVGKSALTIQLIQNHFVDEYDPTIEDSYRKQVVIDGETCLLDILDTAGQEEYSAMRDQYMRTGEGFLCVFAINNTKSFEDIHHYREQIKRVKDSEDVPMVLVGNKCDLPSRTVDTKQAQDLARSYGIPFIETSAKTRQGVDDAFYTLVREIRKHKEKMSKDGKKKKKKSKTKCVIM
Assay: Cell Activity Assay: accumulation of GDP-bound KRAS G12C in MIAPaCa-2 cells (Raf-1 RBD capture, MSD readout)
Format: cell-based
Parameters: endogenous in cells; host or cells: MIAPaCa-2
Details: 6 hours, assay limit is 30.00
Method: Compounds presented in the present invention lead to the accumulation of the GDP bound Ras upon treatment of human cancer cell line. The accumulation of the GDP-bound KRAS G12C in cellular environment was measured based on the principle that KRAS G12C only binds to its downstream kinase; Raf-1 (MAP Kinase Kinase Kinase), when in its active-GTP bound state. In this state, Ras binded to a domain of Raf-1 kinase referred to as the Ras Binding Domain (RBD). […]
# Lookup of reported IC50 keyed by entry

Worked examples, 3 molecules total:
>  <Molecule>
C=CC(=O)N1CCN(c2nc(O[C@@H]3CN(C)C[C@H]3OC)nc3c(Oc4c(Cl)c(F)cc5[nH]ncc45)nc(Cl)cc23)CC1 [Example 24G]

>  <IC50>
0.004 µM

$$$$
>  <Molecule>
C=CC(=O)N1CCN(c2nc(Oc3cccnc3C3CC3)nc3c(Oc4c(Cl)c(F)cc5[nH]ncc45)nccc23)CC1 [Example 06I]

>  <IC50>
0.02 µM

$$$$
>  <Molecule>
C=CC(=O)N1CCN(c2nc(O[C@@H]3CN(CC)C[C@H]3OC)nc3c(Oc4c(Cl)c(F)cc5[nH]ncc45)nccc23)CC1 [Example 17H]

>  <IC50>
0.026 µM

$$$$

Let's switch to this molecule now.
For C=CC(=O)N1CCN(c2nc(N3CC(N(C)C)C3)nc3c(Oc4c(C)ccc5[nH]ncc45)nc(C)cc23)[C@@H](C)C1 [Example 05B] , what is its reported IC50?
4.03 µM
